Where these numbers come from: PubChem BioAssay AID1159580

- protocol.details: chemical genetic growth profiling, strain panel (AID 1159580);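 further: tested at 20 µM; growth read once vehicle control cultures reached saturation at 30 °C; 1 = growth at the plate median or of vehicle wells; lower values mean less growth of the strain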
- condition.details: S. cerevisiae deletion strains, growth OD, locus YJL154C, strain vps35, hits give low values
About 2,000 (36%) of roughly 5,500 compounds were called active. Another 18% or so got no clear call; they are omitted. This is one part of the list.
Under this convention, Met denotes normalized growth strictly below 1 and Not met denotes normalized growth at or above 1.

>  <substance.smiles>
O=c1cccc2ccc(O)c(O)c2c1O

>  <label.class>
Met

$$$$
>  <substance.smiles>
CC1(C)S[C@@H]2[C@H](NC(=O)[C@H](N)c3ccccc3)C(=O)N2[C@H]1C(=O)O

>  <label.class>
Met

$$$$

Now let's try a different one.
Say whether its normalized growth is strictly beneath 1. Entry: O=C(NC(=O)c1ccccc1Cl)Nc1ccc(OC(F)(F)F)cc1
Not met

----------
- protocol.details: chemical genetic growth profiling, strain panel (AID 1159580);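 further: tested at 20 µM; growth read once vehicle control cultures reached saturation at 30 °C; 1 = growth at the plate median or of vehicle wells; lower values mean less growth of the strain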
- condition.details: S. cerevisiae deletion strains, growth OD, locus YNL197C, strain WHI3, hits give low values
Hit rate of the full screen: of about 5,500 compounds, about 2,000 (36%) were called active. About 18% were inconclusive and are not listed. This is one part of the list.
Hi there, I'd appreciate the recorded normalized growth for every entry that follows.
One number for each entry.

Known results for compounds:
>  <compound>
NC(CCCCCP(=O)(O)O)C(=O)O (centres undefined)

>  <normalized growth>
0.992

$$$$
>  <compound>
O=C(c1ccc(OCCN2CCCCC2)cc1)c1c(-c2ccc(O)cc2)sc2cc(O)ccc12

>  <normalized growth>
0.998

$$$$
>  <compound>
O=C1NCC2(CCN(CCc3ccccc3)CC2)O1

>  <normalized growth>
0.992

$$$$

# next compound below
# input compound: c1ccc(CCCN2CCN(CCOC(c3ccccc3)c3ccccc3)CC2)cc1 ; wanted: its normalized growth
0.991

----------
Hi there, I'd appreciate the recorded normalized growth for every entry that follows.
- protocol.details: chemical genetic growth profiling, strain panel (AID 1159580);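 further: tested at 20 µM; growth read once vehicle control cultures reached saturation at 30 °C; 1 = growth at the plate median or of vehicle wells; lower values mean less growth of the strain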
- condition.details: S. cerevisiae deletion strains, growth OD, locus YHR142W, strain chs7, hits give low values
Among all 5,500 compounds or so, about 2,000 (36%) were called active. Roughly 18% stayed inconclusive and do not appear here. This is one part of the list.
Numbers only.

Known results for compounds:
>  <compound>
Cc1ccc(C(=O)Nc2ccc(S(=O)(=O)O)c3cc(S(=O)(=O)O)cc(S(=O)(=O)O)c23)cc1NC(=O)c1cccc(NC(=O)Nc2cccc(C(=O)Nc3cc(C(=O)Nc4ccc(S(=O)(=O)O)c5cc(S(=O)(=O)O)cc(S(=O)(=O)O)c45)ccc3C)c2)c1

>  <measured.parameter>
normalized growth

>  <observed.result>
1.04

$$$$
>  <compound>
COc1ccc2c(c1)OC/C(=C/c1ccc(OC)c(OC)c1)C2=O

>  <measured.parameter>
normalized growth

>  <observed.result>
0.668

$$$$

Please look at the items below and tell me normalized growth for each one, in order.
1. O=S(=O)(O)CCS
2. CC(=O)O[C@H]1C[C@@H](OC(C)=O)C(C)(C)C2CC(=O)[C@]3(C)C(CC[C@@]4(C)[C@H](C(=O)O)OC(=O)C5OC543)[C@]21C (stereo partly drawn)
3. CN(C)CCN(Cc1ccccc1)c1ccccn1

[0.968, 0.98, 1.01]

Please look at the items below and tell me normalized growth for each one, in order.
1. O=C(/C=C/c1ccc(O)c(O)c1)OCCc1ccccc1
2. COc1ccc(CN(CCN(C)C)c2ccccn2)cc1
3. C[n+]1c2cc(N)ccc2cc2ccc(N)cc21
4. CN(C)CCN(Cc1cccs1)c1ccccn1
5. CCOC(=O)n1ccn(C)c1=S

[0.592, 1.05, 0.44, 1.01, 1.01]
